Tested on: HCT-116
ASSAY_DETAILS: Antiproliferative activity against human HCT116 cells assessed as reduction in cell viability incubated for 48 hr by MTT assay
Format: functional, cell-based
CONDITION_SUMMARY: HCT-116, 48 h
For each entry below, report its pIC50 value.
Give bare numbers, as −log10 of the molar value.

Parameters: items (list). Returns: pIC50 for each item.
1. COc1cc(C(=O)/C=C/c2ccc(OCCCNCCCN)cc2)cc(OC)c1OC
2. COc1cc(C(=O)/C=C/c2ccc(OCCCNCCCCN)cc2)cc(OC)c1OC
3. COc1cc(C(=O)/C=C/c2ccc(OCCCNCCCNCCCCN)cc2)cc(OC)c1OC
4. COc1cc(C(=O)/C=C/c2ccc(OCCCNCCCCNCCCN)cc2)cc(OC)c1OC
5. COc1cc(C(=O)/C=C/c2ccc(OCCCNCCCNCCCCNCCCN)cc2)cc(OC)c1OC

1: 4.66; 2: 4.91; 3: 5.09; 4: 4.69; 5: 4.93
